Reference source for all entries: ChEMBL document CHEMBL3124762

Entries annotated with measured pIC50
target system: Bcl-2-like protein 2 (Homo sapiens, UniProt Q92843, A128E/C29S)
Sequence (Q92843 2-193 C29S/A128E limits assumed): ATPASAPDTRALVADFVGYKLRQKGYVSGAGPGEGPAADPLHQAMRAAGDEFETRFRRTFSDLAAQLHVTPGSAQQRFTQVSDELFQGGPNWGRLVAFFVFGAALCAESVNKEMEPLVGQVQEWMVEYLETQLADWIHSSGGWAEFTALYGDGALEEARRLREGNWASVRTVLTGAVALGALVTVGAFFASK
protocol: Inhibition of binding of wild type mBIMBH3 peptide to human Bcl-W delta C29 (C29S/A128E) mutant by surface plasmon resonance competition experiment
pIC50: −log10 of the molar value.

[[record]]
record_smiles = "CCCN(C(=O)N[C@@H](CSCC(C)C)C(=O)O)C(=O)c1cccc(C#Cc2ccc(F)cc2F)c1"
assay_result = "< 4.60"


// next item, pIC50 requested
Lab book: pIC50 of `O=C(NS(=O)(=O)c1ccc(NCCSc2ccccc2)c([N+](=O)[O-])c1)c1ccc(-c2ccc(F)cc2)cc1` noted as < 4.60
